Measured values drawn from paper PMC7429351 for this set.

- target.entity: Pf CaM (Plasmodium falciparum, UniProt P62203)
- Construct: properties of the whole protein can be explored with differential scanning calorimetry
- assay.summary: Calcineurin activity assay, inhibition of Pf CaM function
pIC50: −log10 of the molar value.
recorded.endpoint: pIC50

OC(CNCC1CCCO1)Cn1c2ccc(Cl)cc2c2cc(Cl)ccc21 (stereo not shown) : 5.21

---

- target.entity: human CaM (dansyl-labeled) (Homo sapiens)
- Construct: properties of the whole protein can be explored with differential scanning calorimetry
- assay.summary: Dansyl-CaM fluorescence titration, human CaM
- condition.details: hyperbolic fit
recorded.endpoint: Kd (nM)

OC(CNCC1CCCO1)Cn1c2ccc(Cl)cc2c2cc(Cl)ccc21 (stereo not shown) [MMV396736] : 1800
